System: HIV-1iiib
Experiment: Anti-HIV-1 activity, acute infection of H9 cells
Type: cell-based
Details: Human immunodeficiency virus 1; H9 cell line infected with HIV-1iiib; reverse transcriptase assay at 4 and 7 days post infection; read-out: Concentration for 50% Protection
Description: Using the general methods of Pauwels et al., (J. Virol. Methods, 16, 171-185, 1987) and Mann et al. (AIDS Research and Human Retroviruses, 253-255, 1989) anti-viral assays of acute HIV-1 infection were performed in the H9 cell line. Cultures were batch infected in 1 ml of RPM1 1640 media/10% fetal calf serum containing 10^7 cells and 10^5 infectious doses of HIV-1iiib for an effective multiplicity of infection of 0.01. […]
property: pEC50
Interpret pEC50 as the negative base-10 log of the concentration measured in mol/L.

molecule=Cc1cc(C)cc(-c2cc(O)c(Sc3ccccc3C(C)C)c(=O)o2)c1 assayedtarget=HIV-1iiib property=pEC50 number=4.51
molecule=CC(C)c1ccccc1Sc1c(O)cc(-c2ccc(OCc3cccnc3)cc2)oc1=O assayedtarget=HIV-1iiib property=pEC50 number=6.19

Query molecule follows.
// pEC50 value for CC(C)CC(Sc1ccccc1)c1c(O)cc(-c2ccccc2)oc1=O (racemic) : 4.82

###

target: HIV-I Protease (Human immunodeficiency virus type 1 group M subtype B); construct: HIV-I Protease: The enzyme is obtained from Bachem Bioscience Inc; purchased Bachem Bioscience Inc; test: HIV protease inhibition (hydrolysis of undecapeptide substrate, HPLC readout); format: biochemical; conditions: 40 µM substrate, pH 4.7, 37 °C, 5 minutes; read-out: 50% Inhibition Concentration (Averaged)
pIC50: −log10 of the molar value.
Lab note: anything with pIC50 at or over 6 counts as criterion met; the rest go in criterion not met.

compound=O=C(O)COc1ccc(-c2cc(O)c(SCCc3ccccc3)c(=O)o2)cc1 cat="criterion met"
compound="CC(C)CC(SC1CCCC1)c1c(O)cc(-c2ccccc2)oc1=O (racemic)" cat="criterion met"
compound=CCOC(=O)COc1ccc(-c2cc(O)c(SCCc3ccccc3)c(=O)o2)cc1 cat="criterion met"
compound="O=c1oc(-c2ccccc2)cc(O)c1C(CC1CC1)SCc1ccccc1 (racemic)" cat="criterion met"
compound=O=c1oc(-c2cccc(-c3ccccc3)c2)cc(O)c1Sc1ccc2ccccc2c1 cat="criterion met"

[Q] Quick check: does `O=c1oc(-c2ccccc2)cc(O)c1SCc1ccccc1` have pIC50 greater than or equal to 6?
[A] criterion not met

###

# Lookup of reported pIC50 keyed by entry
target: HIV-I Protease (Human immunodeficiency virus type 1 group M subtype B, UniProt P04585); construct: HIV-I Protease: The enzyme is obtained from Bachem Bioscience Inc; purchased Bachem Bioscience Inc; assay: HIV protease inhibition (hydrolysis of undecapeptide substrate, HPLC readout); type: biochemical; settings: 40 µM substrate, pH 4.7, 37 °C, 5 minutes; read-out: 50% Inhibition Concentration (Averaged)
Please express pIC50 as -log10 of the molar concentration.

These solved cases illustrate the format of a correct answer.
smilesrepr=O=c1oc(-c2ccc3c(c2)OCO3)cc(O)c1SCc1ccccc1 number=6.22
smilesrepr=COc1cccc(-c2cc(O)c(SCc3ccccc3)c(=O)o2)c1 number=6.05
smilesrepr=Cc1cc(-c2cc(O)c(SCc3ccccc3)c(=O)o2)cc(C)c1O number=6.62
smilesrepr=COc1ccc(-c2cc(O)c(SCc3ccccc3)c(=O)o2)cc1C number=6.15

Kindly review the next molecule as well.
The reported pIC50 of the molecule `O=c1oc(-c2ccc(O)cc2)cc(O)c1SCc1ccccc1` was 6.16

Value source: patent EP0729465B1
